As shown below, each of these compounds has a reported drug sensitivity score value.
# Test system: MDA-MB-436
# Method: drug sensitivity score (DSS), CellTiter-Blue viability (DSS (AUC-based score)); higher = stronger viability inhibition; extreme values may be limits of the assay
# Applied conditions: incubation time: 72 h
Test readout: drug sensitivity score

> print(dat)
                                query.smiles  observed.result
 1  CCS(=O)(=O)c1cccc(-c2cc(C(=O)NC3CCN(C)CC3)c(C)c3[nH]c4ncc(C)cc4c23)c1             1.92
 2  O=c1[nH]c(=O)n([C@H]2C[C@H](O)[C@@H](CO)O2)cc1F             10.6
 3  CC(C)C[C@H](NC(=O)[C@H](Cc1ccccc1)NC(=O)c1cnccn1)B(O)O             16.2
 4  COC(=O)C[C@](O)(CCCC(C)(C)O)C(=O)O[C@@H]1C(OC)=C[C@]23CCCN2CCc2cc4c(cc2[C@H]13)OCO4             26.7
 5  COC1=C2C[C@@H](C)C[C@H](OC)[C@H](O)[C@@H](C)/C=C(\C)[C@H](OC(N)=O)[C@@H](OC)/C=C\C=C(/C)C(=O)NC(=CC1=O)C2=O               25
 6  COC1=CC(c2cc3ccccc3[nH]2)=N/C1=C\c1[nH]c(C)cc1C             13.7
 7  COc1cccc2c1C(=O)c1c(O)c3c(c(O)c1C2=O)C[C@@](O)(C(C)=O)C[C@@H]3O[C@H]1C[C@H](N)[C@H](O)[C@H](C)O1             10.8
 8  Cn1c(=O)c(F)c(Nc2ccc(I)cc2F)c2c(=O)n(C[C@@H](O)CO)cnc21                0
 9  COc1ccc(C2=N[C@@H](c3ccc(Cl)cc3)[C@@H](c3ccc(Cl)cc3)N2C(=O)N2CCNC(=O)C2)c(OC(C)C)c1                0
10  CCOc1cc2ncc(C#N)c(Nc3ccc(OCc4ccccn4)c(Cl)c3)c2cc1NC(=O)/C=C/CN(C)C                0

###

# System: DU-4475
# Method: normalised response (% of control), CellTiter-Glo; higher = more viable cells (100 = DMSO, 0 = benzethonium chloride kill control)
# Applied conditions: incubation time: 72 h
Test readout: normalised response (%)

> print(dat)
                                   compound         test.readout  observed.result
1  CCS(=O)(=O)c1cccc(-c2cc(C(=O)NC3CCN(C)CC3)c(C)c3[nH]c4ncc(C)cc4c23)c1 [TAK-901] (10 nM)  normalised response              107
2  CC(C)(C)c1cc(NC(=O)Nc2ccc(-c3cn4c(n3)sc3cc(OCCN5CCOCC5)ccc34)cc2)no1 [Quizartinib] (10 nM)  normalised response             97.9
3  CS(=O)(=O)CCNCc1ccc(-c2ccc3ncnc(Nc4ccc(OCc5cccc(F)c5)c(Cl)c4)c3c2)o1 [Lapatinib] (10 nM)  normalised response              106
4  CC(C)C[C@H](NC(=O)[C@H](Cc1ccccc1)NC(=O)c1cnccn1)B(O)O [Bortezomib] (10 nM)  normalised response             88.6
5  FC(F)c1nc2ccccc2n1-c1nc(N2CCOCC2)nc(N2CCOCC2)n1 [ZSTK474] (100 nM)  normalised response               97
6  CN1CCN(c2ccc3nc(-c4c(N)c5c(F)cccc5[nH]c4=O)[nH]c3c2)CC1 [Dovitinib] (100 nM)  normalised response             97.1
7  C#Cc1cccc(Nc2ncnc3cc(OC)c(OCCCCCCC(=O)NO)cc23)c1 [CUDC-101] (100 nM)  normalised response             96.3
8  CCCC(CCC)C(=O)O [Valproic acid] (10000 nM)  normalised response             98.2
